Biological target: Sodium-dependent dopamine transporter (Rattus norvegicus) (UniProt P23977)
Sequence (P23977 whole entry): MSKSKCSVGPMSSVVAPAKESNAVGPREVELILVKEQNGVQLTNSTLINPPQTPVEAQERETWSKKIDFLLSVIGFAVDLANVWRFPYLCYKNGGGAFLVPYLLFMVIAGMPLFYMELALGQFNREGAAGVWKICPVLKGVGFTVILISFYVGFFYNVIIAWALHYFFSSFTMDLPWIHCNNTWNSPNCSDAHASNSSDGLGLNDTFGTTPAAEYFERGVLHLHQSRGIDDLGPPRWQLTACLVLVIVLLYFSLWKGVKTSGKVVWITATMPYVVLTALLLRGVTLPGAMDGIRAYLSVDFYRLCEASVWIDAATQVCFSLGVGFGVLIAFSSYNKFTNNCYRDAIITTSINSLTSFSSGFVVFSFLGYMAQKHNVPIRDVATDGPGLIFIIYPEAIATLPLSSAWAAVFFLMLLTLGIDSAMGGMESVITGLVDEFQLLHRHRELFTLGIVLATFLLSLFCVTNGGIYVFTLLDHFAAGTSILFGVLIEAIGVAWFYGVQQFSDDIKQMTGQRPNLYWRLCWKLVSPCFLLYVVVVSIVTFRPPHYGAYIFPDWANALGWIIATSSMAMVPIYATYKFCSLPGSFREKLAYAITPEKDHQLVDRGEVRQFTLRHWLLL
Test: Inhibition of tritiated dopamine (DA) uptake at 0.1 uM concentration
Type: functional
endpoint: inhibition (%)
Entry rule: numbers only, all in %.

smilesData	inhibition, %
Br.Fc1ccc([C@@H]2CN3CCC[C@H]3c3cc(F)ccc32)cc1	38

Query inhibition on Sodium-dependent dopamine transporter (Rattus norvegicus) (UniProt P23977) for Br.c1ccc([C@@H]2CN3CCCCC[C@H]3c3ccccc32)cc1
19

Reported inhibition for Sodium-dependent dopamine transporter (Rattus norvegicus) (UniProt P23977), given COc1ccc([C@@H]2CN3CCC[C@H]3c3ccccc32)cc1OC ?
11

Recorded inhibition for Br.COc1cc([C@@H]2CN3CCC[C@H]3c3ccccc32)cc(OC)c1OC with Sodium-dependent dopamine transporter (Rattus norvegicus) (UniProt P23977), please?
0

So what inhibition did Br.Oc1ccc([C@@H]2CN3CCC[C@H]3c3ccccc32)cc1 get with Sodium-dependent dopamine transporter (Rattus norvegicus) (UniProt P23977)?
26

Hello, I am looking for reported inhibition with Sodium-dependent dopamine transporter (Rattus norvegicus) (UniProt P23977) for Br.COc1cccc([C@@H]2CN3CCC[C@H]3c3ccccc32)c1 . Could you help?
35

Param readout = inhibition; param system = Sodium-dependent dopamine transporter (Rattus norvegicus) (UniProt P23977); param query = Br.Fc1c(F)c(F)c([C@@H]2CN3CCC[C@H]3c3ccccc32)c(F)c1F ; response: value
0

What is its inhibition for Sodium-dependent dopamine transporter (Rattus norvegicus) (UniProt P23977)? Entry: Br.Clc1ccccc1[C@@H]1CN2CCC[C@H]2c2ccccc21
9

Return inhibition measured with Sodium-dependent dopamine transporter (Rattus norvegicus) (UniProt P23977) given this compound: Br.Clc1cccc2c1[C@H](c1ccccc1)CN1CCC[C@@H]21
6

====

Measured inhibition, listed per entry.
Molecular target: Adrenergic receptor alpha-2 (Rattus norvegicus) (UniProt P22086+P19328+P22909)
Test: Binding affinity towards alpha-2 adrenergic receptor at 1.0 uM concentration
Format: protein assay
// return numeric value only (unit: %, not printed)

Reference set, count: 5
compound	inhibition (%)
c1ccc([C@@H]2CN3CCC[C@@H]3c3ccccc32)cc1 (stereo in doubt; (+)-7b)	64
Clc1ccc([C@@H]2CN3CCC[C@@H]3c3cc(Cl)ccc32)cc1	10
Br.Oc1ccc([C@@H]2CN3CCC[C@@H]3c3ccccc32)cc1O	26
FC(F)(F)c1cccc([C@@H]2CN3CCC[C@@H]3c3ccccc32)c1 (stereo in doubt; 37b)	7
Br.Oc1ccc([C@@H]2CN3CCC[C@@H]3c3ccccc32)cc1	70

Data request, read-out inhibition, for Clc1ccccc1[C@@H]1CN2CCC[C@@H]2c2ccccc21 (stereo in doubt; 24b)
12

# get_value(readout='inhibition', item= Br.Fc1ccc([C@@H]2CN3CCC[C@@H]3c3cc(F)ccc32)cc1 )
25

I would be grateful if you could share the reported inhibition for COc1cccc([C@@H]2CN3CCC[C@@H]3c3ccccc32)c1 .
37

====

Target: Sodium-dependent dopamine transporter (Rattus norvegicus)
Assay: Inhibition of the uptake of tritiated dopamine (DA) in rat synaptosomes
Catalogue of Ki values
Return type: number; implicit unit nM.

compound	subjectOfTest	Ki / nM
Br.Oc1cccc([C@@H]2CN3CCC[C@@H]3c3ccccc32)c1	Sodium-dependent dopamine transporter (Rattus norvegicus)	10.1
c1ccc([C@@H]2CN3CC[C@H]3c3ccccc32)cc1	Sodium-dependent dopamine transporter (Rattus norvegicus)	1620
Br.Cn1ccc2c1[C@@H](c1ccccc1)CN1CCC[C@@H]21	Sodium-dependent dopamine transporter (Rattus norvegicus)	9.8
Br.O=[N+]([O-])c1ccc([C@@H]2CN3CCC[C@@H]3c3ccccc32)cc1	Sodium-dependent dopamine transporter (Rattus norvegicus)	94.2
FC(F)(F)c1cccc([C@@H]2CN3CCC[C@@H]3c3ccccc32)c1 (stereo in doubt; (+)-37b)	Sodium-dependent dopamine transporter (Rattus norvegicus)	25.7

Could you tell me which Ki is on file for Br.COc1ccc([C@@H]2CN3CCC[C@@H]3c3ccccc32)cc1OC ?
71.9

====

Species: Rattus norvegicus
Experiment: Ability to inhibit the uptake of tritiated norepinephrine (NE)
Format: functional
endpoint: Ki

Ki lookup needed for Br.Fc1ccc([C@@H]2CN3CCC[C@H]3c3cc(F)ccc32)cc1 , thanks.
~100 nM

====

Molecular target: Serotonin 2 (5-HT2) receptor (Rattus norvegicus) (UniProt P30994+P08909+P14842)
Sequence (P08909 whole entry, looked up): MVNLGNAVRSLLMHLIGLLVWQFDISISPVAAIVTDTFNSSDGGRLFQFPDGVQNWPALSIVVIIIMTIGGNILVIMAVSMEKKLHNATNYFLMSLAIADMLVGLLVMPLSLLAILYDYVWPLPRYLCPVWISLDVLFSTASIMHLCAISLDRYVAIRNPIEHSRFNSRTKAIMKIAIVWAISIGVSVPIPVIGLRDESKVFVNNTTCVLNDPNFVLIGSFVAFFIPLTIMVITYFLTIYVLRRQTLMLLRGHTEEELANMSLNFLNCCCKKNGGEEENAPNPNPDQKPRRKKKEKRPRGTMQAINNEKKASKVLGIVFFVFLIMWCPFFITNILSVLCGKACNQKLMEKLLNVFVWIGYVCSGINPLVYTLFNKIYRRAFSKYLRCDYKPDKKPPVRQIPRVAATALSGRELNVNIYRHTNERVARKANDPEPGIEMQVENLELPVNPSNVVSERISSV
Sequence (P14842 whole entry, looked up): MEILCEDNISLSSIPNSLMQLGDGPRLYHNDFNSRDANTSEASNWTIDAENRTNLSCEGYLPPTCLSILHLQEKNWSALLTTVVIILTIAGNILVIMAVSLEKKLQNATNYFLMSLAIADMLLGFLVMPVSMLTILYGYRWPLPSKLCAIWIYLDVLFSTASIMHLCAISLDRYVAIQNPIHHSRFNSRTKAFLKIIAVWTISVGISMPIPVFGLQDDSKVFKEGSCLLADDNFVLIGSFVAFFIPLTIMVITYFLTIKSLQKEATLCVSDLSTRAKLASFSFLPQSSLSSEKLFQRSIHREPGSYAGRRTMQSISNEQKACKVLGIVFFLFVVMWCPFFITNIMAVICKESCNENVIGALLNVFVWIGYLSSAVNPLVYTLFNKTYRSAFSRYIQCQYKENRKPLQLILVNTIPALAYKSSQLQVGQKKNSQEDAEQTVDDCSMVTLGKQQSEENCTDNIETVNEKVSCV
Sequence (P30994 whole entry, looked up): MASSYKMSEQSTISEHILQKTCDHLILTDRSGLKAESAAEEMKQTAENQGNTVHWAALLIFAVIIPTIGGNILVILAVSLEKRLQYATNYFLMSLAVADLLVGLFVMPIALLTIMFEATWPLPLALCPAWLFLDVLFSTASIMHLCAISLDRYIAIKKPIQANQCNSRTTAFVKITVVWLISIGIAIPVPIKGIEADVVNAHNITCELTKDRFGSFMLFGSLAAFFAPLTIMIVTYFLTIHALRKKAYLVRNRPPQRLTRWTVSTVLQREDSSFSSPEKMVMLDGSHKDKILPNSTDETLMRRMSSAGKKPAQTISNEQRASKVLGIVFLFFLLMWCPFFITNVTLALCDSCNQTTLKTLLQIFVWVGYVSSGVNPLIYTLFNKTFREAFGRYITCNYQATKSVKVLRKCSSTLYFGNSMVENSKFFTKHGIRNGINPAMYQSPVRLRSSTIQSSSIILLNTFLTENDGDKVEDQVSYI
Assay: Binding affinity towards 5-hydroxytryptamine 2 receptor at 1.0 uM concentration
Assay type: protein assay
endpoint: inhibition (%)
Please respond with the number in % and leave the unit unwritten.

# example entries with known answers
compound	inhibition [%]
Br.COc1cc([C@@H]2CN3CCC[C@H]3c3ccccc32)cc(OC)c1OC	88
Br.Oc1cc2c(cc1O)[C@H]1CCCN1C[C@H]2c1ccccc1	46
Br.Fc1ccc([C@@H]2CN3CCC[C@H]3c3cc(F)ccc32)cc1	5
c1ccc([C@@H]2CN3CCC[C@@H]3c3ccccc32)cc1 (stereo in doubt; (-)-7b)	58
COc1ccccc1[C@@H]1CN2CCC[C@@H]2c2ccccc21	74

Give its inhibition value. Item: Br.Clc1ccccc1[C@@H]1CN2CCC[C@H]2c2ccccc21
10

Find the recorded inhibition belonging to Br.Clc1ccc([C@@H]2CN3CCC[C@@H]3c3ccccc32)cc1 and report it.
59

Data request, read-out inhibition, for Br.COc1cc([C@@H]2CN3CCC[C@@H]3c3ccccc32)cc(OC)c1OC
2

Reported inhibition, compound Clc1ccc([C@@H]2CN3CCC[C@@H]3c3ccccc32)cc1Cl : ____
24

====

Molecular target: Sodium-dependent dopamine transporter (Rattus norvegicus, UniProt P23977)
Test: Inhibition of the uptake of tritiated dopamine (DA) in rat synaptosomes
Ki values for the compounds below.
Enter your answer as a number in nM; do not include the unit.

Short answer please: Ki, Sodium-dependent dopamine transporter (Rattus norvegicus, UniProt P23977), entry Br.C[C@]1(c2ccccc2)CN2CCC[C@H]2c2ccccc21
7.4

Query the reported Ki for Sodium-dependent dopamine transporter (Rattus norvegicus, UniProt P23977); item: c1ccc([C@@H]2CN3CCC[C@@H]3c3ccccc32)cc1 (stereo in doubt; (+)-7b)
4.4

Lab note: need Ki for Br.Clc1ccccc1[C@@H]1CN2CCC[C@@H]2c2ccccc21 (stereo in doubt; 24b) on Sodium-dependent dopamine transporter (Rattus norvegicus, UniProt P23977), anyone have it?
35.9

Field: Ki (Sodium-dependent dopamine transporter (Rattus norvegicus, UniProt P23977)). Entry: C[C@@]12CCCN1C[C@H](c1ccc(Cl)cc1)c1ccccc12
7.6

Provide the documented Ki with Sodium-dependent dopamine transporter (Rattus norvegicus, UniProt P23977) as the system for Br.c1ccc([C@H]2CN3CCC[C@H]3c3[nH]c4ccccc4c32)cc1
2.9

====

Target: Sodium-dependent dopamine transporter (Rattus norvegicus)
Assay: Inhibition of tritiated dopamine (DA) uptake at 0.1 uM concentration
Type: functional
endpoint: inhibition (%)
State just the number; it will be interpreted in %.

smilesData	inhibition [%]
Br.Oc1cc2c(cc1O)[C@@H]1CCCN1C[C@H]2c1ccccc1	22
Br.Fc1c(F)c(F)c([C@@H]2CN3CCC[C@@H]3c3ccccc32)c(F)c1F	14
FC(F)(F)c1ccc([C@@H]2CN3CCC[C@H]3c3ccccc32)cc1	7
Clc1cccc2c1[C@H]1CCCN1C[C@H]2c1ccccc1	45

Endpoint output: inhibition of Fc1ccc([C@@H]2CN3CCC[C@H]3c3ccccc32)cc1 . Value?
43

====

// values below are reported ED50
Organism: Mus musculus
Test: Antagonism of tetrabenazine (TBZ)-induced depression in mice measured for ptosis
Assay type: functional
Settings: Mus musculus; read-out: ED50
Quick reminder: number only, in mg/kg, skip the unit.

smilesData	readoutUnit	ED50
Br.CSc1ccc([C@@H]2CN3CCC[C@H]3c3ccccc32)cc1	mg/kg	10.9
O=C(Nc1ccccc1)Nc1ccc([C@@H]2CN3CCC[C@H]3c3ccccc32)cc1	mg/kg	10
COc1cc2c(cc1OC)[C@H]1CCCN1C[C@H]2c1ccccc1	mg/kg	3.8
COc1cccc2c1[C@H](c1ccccc1)CN1CCC[C@@H]21	mg/kg	13.9

Kindly consider the entry below.
Name the recorded ED50 for Br.COc1cc([C@@H]2CN3CCC[C@@H]3c3ccccc32)cc(OC)c1OC .
2.5

====

Molecular target: Norepinephrine transporter (Rattus norvegicus, UniProt Q9WTR4)
Sequence (Q9WTR4 whole entry): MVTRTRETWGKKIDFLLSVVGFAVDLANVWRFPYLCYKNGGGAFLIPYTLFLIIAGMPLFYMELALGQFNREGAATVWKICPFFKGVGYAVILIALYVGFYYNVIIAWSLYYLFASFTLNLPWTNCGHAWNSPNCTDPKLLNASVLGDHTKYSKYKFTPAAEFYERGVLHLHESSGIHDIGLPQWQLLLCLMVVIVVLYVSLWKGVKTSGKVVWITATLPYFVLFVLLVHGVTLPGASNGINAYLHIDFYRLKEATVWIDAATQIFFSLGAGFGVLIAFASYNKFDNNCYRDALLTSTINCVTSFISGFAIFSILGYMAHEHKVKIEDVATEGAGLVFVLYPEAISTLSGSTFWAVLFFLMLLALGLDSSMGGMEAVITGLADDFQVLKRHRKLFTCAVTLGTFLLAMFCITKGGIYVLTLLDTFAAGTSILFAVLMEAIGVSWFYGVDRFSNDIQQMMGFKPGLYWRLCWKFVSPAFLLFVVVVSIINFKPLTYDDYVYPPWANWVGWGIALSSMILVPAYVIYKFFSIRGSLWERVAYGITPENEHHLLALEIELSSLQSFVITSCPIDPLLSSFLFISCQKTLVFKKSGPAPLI
Assay: Inhibition of uptake of tritiated norepinephrine (NE) in rat synaptosomes
So basically, if Ki comes in under 10 nM it's yes (1), and if it's 10 nM or more it's no (0).

molecule	groupLabel
FC(F)(F)c1cccc([C@@H]2CN3CCC[C@@H]3c3ccccc32)c1 (stereo in doubt; (-)-37b)	no (0)
Br.O=[N+]([O-])c1ccc([C@@H]2CN3CCC[C@@H]3c3ccccc32)cc1	yes (1)
c1ccc([C@H]2CN3CCCC[C@H]3c3ccccc32)cc1	no (0)
Br.Fc1ccc([C@@H]2CN3CCC[C@@H]3c3cc(F)ccc32)cc1	yes (1)
COc1cccc2c1[C@H](c1ccccc1)CN1CCC[C@H]21	no (0)

Record c1ccc([C@H]2CN3CC[C@H]3c3ccccc32)cc1 : is its Ki strictly below 10 nM?
yes (1)

Take the molecule Br.c1ccc([C@H]2CN3CCC[C@H]3c3[nH]c4ccccc4c32)cc1 and say whether its Ki is less than 10 nM.
yes (1)
